# TARGET_DESC: T1, O3-bA
# T1 chain: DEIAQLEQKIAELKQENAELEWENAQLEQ
# MEASUREMENT_NOTES: two-hybrid library CCNG1;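 note: natural log of median RNA to DNA barcode read ratio; higher means stronger binding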
ATTRIBUTE_MEASURED: interaction score

Field: example entries. Status: answers known.
1. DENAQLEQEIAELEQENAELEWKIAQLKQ [O14-bA]: -0.879
2. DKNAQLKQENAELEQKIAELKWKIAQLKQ [O10-bA]: -1.28

a. DKNAQLKQENAELEQEIAELEWEIAQLEQ [O1-bA]
b. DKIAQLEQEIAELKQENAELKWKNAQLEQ [4H2143-bA]
// query Of the two listed items, which has the higher interaction score? First: a Second: b API: response body contains the label of the selected item.
// result b

These entries and their values trace back to paper PMC10397247.
